- Tested on: Namalwa
- method-notes: In vitro cytotoxicity assay (WST-8 cell viability, 5 days)
- Assay type: cell-based
- conditions-used: Homo sapiens, read-out: In vitro cytotoxicity (IC50) Namalwa
outcome-measure: pIC50
Formally, pIC50 is defined as -log10 of the concentration c, with c in mol/L.

Reference set (3 entries):
CC[C@@]1(O)C(=O)OCc2c1cc1n(c2=O)Cc2c-1nc1cc(F)c(SC)cc1c2CCl
9.00
CC[C@@]1(O)C(=O)OCc2c1cc1n(c2=O)Cc2c-1nc1cc(F)c(C)cc1c2CCCCO
9.70
CC[C@@]1(O)C(=O)OCc2c1cc1n(c2=O)Cc2c-1nc1cc(F)c(C)cc1c2CCCCSC [Compound 33a]
9.15

What the record says about CC[C@@]1(O)C(=O)OCc2c1cc1n(c2=O)Cc2c-1nc1cc(F)c(C)cc1c2CCl : pIC50 is 8.52

What the record says about CC[C@@]1(O)C(=O)OCc2c1cc1n(c2=O)Cc2c-1nc1cc(F)c(C)cc1c2CNC(=O)CO : pIC50 is 9.05
